test system: HCT-116; test: NCI tumour cell line growth inhibition, 48 h
Activity calls are given as the source filed them. No stated cut-off is given here; in the data, active = GI50 up to about 1.1 µM and inactive = higher.
Please respond with reported GI50 for every item in the list.

Req: Suppose we examine the molecule COC(=O)/C=C(\C)CC/C=C(\C)CCC1OC1(C)C (stereo not given) ; what GI50 value has been reported?
Resp: 12.5 µM (inactive)

Req: Can you handle "O=C(CC1=Nc2nnc(-c3nnc4n3C(=O)C(CC(=O)C3CC3)=N4)n2C1=O)C1CC1" next?
Resp: > 100 µM (inactive)

Req: Can you handle O=C1c2ccccc2C(=O)N1CC1(C(=O)O)NCCS1(=O)=O (stereo not given) next?
Resp: > 100 µM (inactive)

Req: Can you handle "C=Cc1cnc([N+](=O)[O-])n1C" next?
Resp: 57.1 µM (inactive)

Req: Can you handle "O=S(=O)(O)c1ccc(O)c(/N=N/c2c(O)ccc3ccccc23)c1" next?
Resp: > 100 µM (inactive)

Req: Can you handle C#CCN1C(=O)CN2C(Cl)(Cl)C2(c2ccccc2)c2cc(Cl)ccc21 (stereo not given) next?
Resp: 42.2 µM (inactive)

Req: Can you handle O=C1C(=O)N(c2ccc(Cl)cc2)C(=O)/C(=N/c2cccc3c(=O)[nH][nH]c(=O)c23)C1c1nc2ccccc2o1 (stereo not given) next?
Resp: > 100 µM (inactive)

Req: Can you handle COc1ccc2c(c1)OCCC1=C2SCC2(C)CCN=C12 (stereo not given) next?
Resp: > 100 µM (inactive)

Req: Can you handle "Cc1ccc(S(=O)(=O)N/N=C2\C=C[C@]3(CC2)C(=O)N(C)c2ccccc23)cc1" next?
Resp: > 100 µM (inactive)

Req: Can you handle "CCOC(=O)CC[C@H](NC(=O)c1nc[nH]c1/N=N/N(C)C)C(=O)OCC" next?
Resp: > 100 µM (inactive)
